Attribution: patent US8129366B2

system-under-test: hα4 and β1 integrins (Homo sapiens, UniProt P05556+P13612)
Sequence (P13612 34-1032): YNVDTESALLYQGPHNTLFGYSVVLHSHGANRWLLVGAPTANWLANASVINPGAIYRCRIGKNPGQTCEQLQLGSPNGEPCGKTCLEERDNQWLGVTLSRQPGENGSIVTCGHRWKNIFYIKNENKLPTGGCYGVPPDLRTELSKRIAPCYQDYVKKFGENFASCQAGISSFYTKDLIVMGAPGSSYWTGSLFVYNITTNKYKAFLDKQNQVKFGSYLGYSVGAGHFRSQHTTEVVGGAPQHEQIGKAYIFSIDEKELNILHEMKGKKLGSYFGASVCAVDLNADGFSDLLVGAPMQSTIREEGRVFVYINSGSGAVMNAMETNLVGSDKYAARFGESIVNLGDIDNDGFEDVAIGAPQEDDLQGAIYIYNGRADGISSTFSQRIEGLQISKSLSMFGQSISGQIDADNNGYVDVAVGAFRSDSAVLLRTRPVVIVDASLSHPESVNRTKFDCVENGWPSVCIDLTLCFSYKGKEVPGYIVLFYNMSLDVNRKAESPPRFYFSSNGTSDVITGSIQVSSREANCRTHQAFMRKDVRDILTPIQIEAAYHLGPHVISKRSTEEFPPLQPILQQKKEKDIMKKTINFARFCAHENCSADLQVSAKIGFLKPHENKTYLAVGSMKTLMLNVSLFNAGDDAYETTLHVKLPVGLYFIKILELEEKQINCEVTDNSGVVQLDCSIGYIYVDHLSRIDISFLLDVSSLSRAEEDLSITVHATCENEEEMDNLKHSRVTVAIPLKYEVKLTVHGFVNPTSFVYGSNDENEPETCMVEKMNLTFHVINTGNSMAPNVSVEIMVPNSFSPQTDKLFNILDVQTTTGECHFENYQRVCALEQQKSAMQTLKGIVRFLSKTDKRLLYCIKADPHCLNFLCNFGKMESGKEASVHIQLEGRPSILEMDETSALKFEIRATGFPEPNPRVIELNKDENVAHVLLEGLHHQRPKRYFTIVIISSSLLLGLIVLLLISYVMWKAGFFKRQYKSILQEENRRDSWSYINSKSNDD
Sequence (P05556 21-798): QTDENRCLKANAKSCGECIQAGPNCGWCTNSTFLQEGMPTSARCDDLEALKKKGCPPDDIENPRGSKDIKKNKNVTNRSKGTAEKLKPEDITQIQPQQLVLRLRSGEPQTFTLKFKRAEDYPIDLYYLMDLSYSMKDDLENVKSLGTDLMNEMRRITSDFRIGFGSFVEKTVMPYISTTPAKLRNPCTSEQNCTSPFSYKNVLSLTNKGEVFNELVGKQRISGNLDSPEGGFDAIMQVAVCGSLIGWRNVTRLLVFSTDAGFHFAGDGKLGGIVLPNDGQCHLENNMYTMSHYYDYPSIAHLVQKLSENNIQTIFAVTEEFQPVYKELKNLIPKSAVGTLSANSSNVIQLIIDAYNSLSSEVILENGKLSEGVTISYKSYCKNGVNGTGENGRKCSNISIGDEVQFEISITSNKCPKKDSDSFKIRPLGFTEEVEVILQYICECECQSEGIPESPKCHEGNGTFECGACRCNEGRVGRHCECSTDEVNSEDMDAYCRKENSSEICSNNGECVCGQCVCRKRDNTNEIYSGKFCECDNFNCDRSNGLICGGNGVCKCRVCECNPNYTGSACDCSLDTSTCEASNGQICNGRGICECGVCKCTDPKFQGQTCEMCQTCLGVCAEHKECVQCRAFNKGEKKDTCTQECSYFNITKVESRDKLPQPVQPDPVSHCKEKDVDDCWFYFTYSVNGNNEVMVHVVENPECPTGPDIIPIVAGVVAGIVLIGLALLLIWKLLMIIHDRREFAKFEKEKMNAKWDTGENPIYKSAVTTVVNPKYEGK
experiment-summary: In vitro inhibition of binding between CHO cells expressing hα4 and β1 integrins and Eu3+-hVCAM-1 D1D7-IgG
assay-conditions: CHO cells expressing hα4 and β1 integrins; Eu3+-hVCAM-1 D1D7-IgG ligand; without HSA
reported-endpoint: Ki (nM)

Worked cases, Ki given:
compound="O=C(Nc1cc(F)c(CC(=O)N2C[C@@H](N3CCC(F)CC3)C[C@H]2CO[C@H]2CC[C@H](C(=O)O)CC2)cc1Cl)c1csc2ccccc12 [Example 100]" measured_result=0.91
compound="CN1CCN([C@H]2C[C@@H](CO[C@H]3CC[C@H](C(=O)O)CC3)N(C(=O)Cc3cc(Cl)c(NC(=O)c4cn(C)c5ccccc45)cc3Cl)C2)CC1 [Example 112]" measured_result=4.2

P. CCN1CCN([C@H]2C[C@@H](CO[C@H]3CC[C@H](C(=O)O)CC3)N(C(=O)Cc3cc(Cl)c(NC(=O)c4csc5ccccc45)cc3F)C2)CC1=O [Example 154]
Q. CO[C@H]1CCN([C@H]2C[C@@H](CO[C@H]3CC[C@H](C(=O)O)CC3)N(C(=O)Cc3cc(Cl)c(NC(=O)c4cn(C)c5ccccc45)cc3Cl)C2)C1 [Example 35]
R. O=C(Nc1cc(Cl)c(CC(=O)N2C[C@@H](N3C[C@@H]4OCO[C@@H]4C3)C[C@H]2CO[C@H]2CC[C@H](C(=O)O)CC2)cc1Cl)c1coc2ccccc12 [Example 73]
(Q) Give the ascending ranking of the items by reported Ki. Form field (ranking): labels in requested order.
(A) P, R, Q

====

system-under-test: hα4 and β1 integrins (Homo sapiens, UniProt P05556+P13612)
experiment-summary: In vitro inhibition of binding between CHO cells expressing hα4 and β1 integrins and Eu3+-hVCAM-1 D1D7-IgG
assay-conditions: CHO cells expressing hα4 and β1 integrins; Eu3+-hVCAM-1 D1D7-IgG ligand; without HSA
reported-endpoint: Ki (nM)

Worked cases, Ki given:
smiles=CS(=O)(=O)N1CCN([C@H]2C[C@@H](CO[C@H]3CC[C@H](C(=O)O)CC3)N(C(=O)Cc3cc(Cl)c(NC(=O)c4coc5ccccc45)cc3F)C2)CC1 system_under_test="hα4 and β1 integrins (Homo sapiens, UniProt P05556+P13612)" reported_endpoint=Ki measured_result=1.6
smiles=Cn1cc(C(=O)Nc2cc(F)c(CC(=O)N3C[C@@H](N4CCC(F)(F)CC4)C[C@H]3CO[C@H]3CC[C@H](C(=O)O)CC3)cc2Cl)c2ccccc21 system_under_test="hα4 and β1 integrins (Homo sapiens, UniProt P05556+P13612)" reported_endpoint=Ki measured_result=4

I. CN1CCN([C@H]2C[C@@H](CO[C@H]3CC[C@H](C(=O)O)CC3)N(C(=O)Cc3cc(Cl)c(NC(=O)c4csc5ccccc45)cc3Cl)C2)CC1=O
II. Cn1cc(C(=O)Nc2cc(F)c(CC(=O)N3C[C@@H](N4CCN(C5CCCC5)CC4)C[C@H]3CO[C@H]3CC[C@H](C(=O)O)CC3)cc2Cl)c2ccccc21
(Q) Exercise: compare I and II ; which one has the greater Ki? Answer by quoting the chosen item's label.
(A) II

====

system-under-test: hα4 and β1 integrins (Homo sapiens, UniProt P05556+P13612)
experiment-summary: In vitro inhibition of binding between CHO cells expressing hα4 and β1 integrins and Eu3+-hVCAM-1 D1D7-IgG
assay-conditions: in the presence of 3% human serum albumin (HSA final concentration 3%)
pIC50: −log10 of the molar value.
reported-endpoint: pIC50

smiles=Cn1cc(C(=O)Nc2cc(F)c(CC(=O)N3C[C@@H](N4CCN(CCF)CC4)C[C@H]3CO[C@H]3CC[C@H](C(=O)O)CC3)cc2Cl)c2ccccc21 system_under_test="hα4 and β1 integrins (Homo sapiens, UniProt P05556+P13612)" measured_result=7.89

I. O=C(Nc1cc(F)c(CC(=O)N2C[C@@H](n3ccnc3)C[C@H]2CO[C@H]2CC[C@H](C(=O)O)CC2)cc1Cl)c1csc2ccccc12
II. CN(C)S(=O)(=O)N1CCN([C@H]2C[C@@H](CO[C@H]3CC[C@H](C(=O)O)CC3)N(C(=O)Cc3cc(Cl)c(NC(=O)c4cn(C)c5ccccc45)cc3Cl)C2)CC1
III. Cn1cc(C(=O)Nc2cc(Cl)c(CC(=O)N3C[C@@H](N4CCCCC4)C[C@H]3CO[C@H]3CC[C@H](C(=O)O)CC3)cc2Cl)c2ccccc21
IV. COC1CN([C@H]2C[C@@H](CO[C@H]3CC[C@H](C(=O)O)CC3)N(C(=O)Cc3cc(Cl)c(NC(=O)c4coc5ccccc45)cc3Cl)C2)C1
(Q) Give the ascending ranking of the items by reported pIC50. Form field (ranking): labels in requested order.
(A) IV, II, I, III

P. O=C(Nc1cc(Cl)c(CC(=O)N2C[C@@H](N3CCN(C4CCCCC4)CC3)C[C@H]2CO[C@H]2CC[C@H](C(=O)O)CC2)cc1Cl)c1coc2ccccc12
Q. COCCC1CN([C@H]2C[C@@H](CO[C@H]3CC[C@H](C(=O)O)CC3)N(C(=O)Cc3cc(Cl)c(NC(=O)c4csc5ccccc45)cc3F)C2)C1
(Q) Compare pIC50: is it lower for P or for Q ? Answer by quoting the chosen item's label.
(A) P

====

system-under-test: hα4 and β1 integrins (Homo sapiens, UniProt P05556+P13612)
experiment-summary: In vitro inhibition of binding between CHO cells expressing hα4 and β1 integrins and Eu3+-hVCAM-1 D1D7-IgG
assay-conditions: in the presence of 3% human serum albumin (HSA final concentration 3%)
reported-endpoint: IC50 (nM)

Worked cases, IC50 given:
molecule="O=C(Nc1cc(Cl)c(CC(=O)N2C[C@@H](N3CCCOCC3)C[C@H]2CO[C@H]2CC[C@H](C(=O)O)CC2)cc1Cl)c1csc2ccccc12 [Example 166]" reported_endpoint=IC50 value_units=nM measured_result=8.2
molecule="Cn1cc(C(=O)Nc2ccc(CC(=O)N3C[C@@H](N4CCN(CC(F)(F)F)CC4)C[C@H]3CO[C@H]3CC[C@H](C(=O)O)CC3)cc2Cl)c2ccccc21 [Example 130]" reported_endpoint=IC50 value_units=nM measured_result=7.5
molecule="COc1cc(CC(=O)N2C[C@@H](N3CCN(CC(F)(F)F)CC3)C[C@H]2CO[C@H]2CC[C@H](C(=O)O)CC2)ccc1NC(=O)c1cn(C)c2ccccc12 [Example 135]" reported_endpoint=IC50 value_units=nM measured_result=4.4
molecule="CO[C@@H]1CCN([C@H]2C[C@@H](CO[C@H]3CC[C@H](C(=O)O)CC3)N(C(=O)Cc3cc(Cl)c(NC(=O)c4csc5ccccc45)cc3F)C2)C1 [Example 32]" reported_endpoint=IC50 value_units=nM measured_result=3.5
molecule="O=C(Nc1cc(Cl)c(CC(=O)N2C[C@@H](N3CCN(CC(F)(F)F)CC3)C[C@H]2CO[C@H]2CC[C@H](C(=O)O)CC2)cc1Cl)c1coc2ccccc12 [Example 125]" reported_endpoint=IC50 value_units=nM measured_result=26

a. O=C(Nc1cc(F)c(CC(=O)N2C[C@@H](N3CC(CN4CCOCC4)C3)C[C@H]2CO[C@H]2CC[C@H](C(=O)O)CC2)cc1Cl)c1coc2ccccc12 [Example 30]
b. CO[C@H]1CN([C@H]2C[C@@H](CO[C@H]3CC[C@H](C(=O)O)CC3)N(C(=O)Cc3ccc(NC(=O)c4coc5ccccc45)c(Cl)c3)C2)C[C@H]1OC (relative stereo) [Example 61]
c. C[C@@H]1COC[C@H](C)N1[C@H]1C[C@@H](CO[C@H]2CC[C@H](C(=O)O)CC2)N(C(=O)Cc2cc(Cl)c(NC(=O)c3cn(C)c4ccccc34)cc2Cl)C1 [Example 93]
(Q) Sequence the entries by IC50, beginning with the highest number. Form field (ranking): labels in requested order.
(A) c, a, b
(c: 22 nM, a: 12 nM, b: 5.5 nM)

A. O=C(Nc1cc(F)c(CC(=O)N2C[C@@H](N3CCN(CC(F)(F)F)CC3)C[C@H]2CO[C@H]2CC[C@H](C(=O)O)CC2)cc1Cl)c1csc2ccccc12 [Example 123]
B. O=C(Nc1cc(F)c(CC(=O)N2C[C@@H](N3CCC(F)CC3)C[C@H]2CO[C@H]2CC[C@H](C(=O)O)CC2)cc1Cl)c1csc2ccccc12 [Example 100]
C. COC[C@@H]1C[C@H](OC)CN1[C@H]1C[C@@H](CO[C@H]2CC[C@H](C(=O)O)CC2)N(C(=O)Cc2cc(Cl)c(NC(=O)c3cn(C)c4ccccc34)cc2Cl)C1 [Example 46]
(Q) Sequence the entries by IC50, beginning with the highest number. Form field (ranking): labels in requested order.
(A) C, A, B
(C: 15 nM, A: 10 nM, B: 3.9 nM)
